- Test system: V79 Chinese hamster cells
- protocol summary: Cytotoxicity (plating efficiency) in V79 Chinese hamster cells
- Assay type: cell-based
- experimental parameters: 1.0 µg/ml, 3 h, Table I
test readout: Plating efficiency (%) in V79 cells

INSERT INTO assay_data (molecule, target_or_system, data_value) VALUES
  ('Cc1c2c(c(C)c3c1ccc1ccccc13)C=C[C@@H](O)[C@@H]2O (relative stereo) [trans-8,9-Dihydro-8,9-dihydroxy-DMBA, trans-8,9-dihydro-8,9-dihydroxy-DMBA]', 'V79 Chinese hamster cells', 32),
  ('Cc1c2ccccc2c(C)c2c3c(ccc12)[C@@H](O)[C@H](O)C=C3 (relative stereo) [trans-3,4-Dihydro-3,4-dihydroxy-DMBA, trans-3,4-dihydro-3,4-dihydroxy-DMBA]', 'V79 Chinese hamster cells', 43),
  ('Cc1c2c(c(C)c3ccccc13)[C@@H](O)[C@H](O)c1ccccc1-2 (relative stereo) [trans-5,6-Dihydro-5,6-dihydroxy-DMBA, trans-5,6-dihydro-5,6-dihydroxy-DMBA]', 'V79 Chinese hamster cells', 80),
  ('Cc1c2c(c(C)c3c1ccc1ccccc13)[C@@H](O)[C@H](O)C=C2 (relative stereo) [trans-10,11-Dihydro-10,11-dihydroxy-DMBA, trans-10,11-dihydro-10,11-dihydroxy-DMBA]', 'V79 Chinese hamster cells', 44);

###

- Test system: M2 mouse fibroblasts
- protocol summary: Plating efficiency of M2 mouse fibroblasts
- Type: cell-based
- experimental parameters: 10.0 µg/ml, 24 h, Table I
test readout: Plating efficiency (%) in M2 cells

INSERT INTO results (compound, test_readout, units, data_value) VALUES
  ('O[C@@H]1C=Cc2ccc3cc4ccccc4cc3c2[C@H]1O (relative stereo) [trans-1,2-Dihydro-1,2-dihydroxy BA, trans-1,2-Dihydro-1,2-dihydroxy-BA]', 'Plating efficiency (%) in M2 cells', '%', 10),
  ('O[C@@H]1C=Cc2cc3c(ccc4ccccc43)cc2[C@H]1O (relative stereo) [trans-8,9-Dihydro-8,9-dihydroxy-BA, trans-8,9-dihydro-8,9-dihydroxy-BA]', 'Plating efficiency (%) in M2 cells', '%', 30),
  ('O[C@@H]1C=Cc2c(ccc3cc4ccccc4cc23)[C@H]1O (relative stereo) [trans-3,4-Dihydro-3,4-dihydroxy BA, trans-3,4-dihydro-3,4-dihydroxy-BA]', 'Plating efficiency (%) in M2 cells', '%', 12);
